Tested on: Mycolicibacterium smegmatis
Experiment: Antimicrobial activity against Mycobacterium smegmatis transformed with erm allele Mycobacterium abscessus isolate MC879 preincubated with 2 ug/ml erythromycin for 20 to 24 hrs by broth microdilution method
Format: functional
Numbered stars: 1 amine (or outer) side, 2 acyl side, 3 side chain; on linkers, the order of the positions; unused ones are H or OH. Bridge positions count the residues as written; N and C are the ends. Square brackets hold non-standard residues; d marks the D form. Peptide text beside a SMILES is read from it. * marks the point of attachment. X1 = O=C1C[C@@H](C(=O)[*:2])N([*:1])C[C@H]1CS[C@@H]1CN2CCC1CC2; NMePhe(4-NMe2) = CN[C@@H](Cc1ccc(N(C)C)cc1)C(=O)O; Picolinoyl(3-OH) = O=C(c1ncccc1O)*; Phg = N[C@H](C(=O)O)c1ccccc1; dAbu = CC[C@@H](N)C(=O)O

compound: CC[C@H]1NC(=O)[C@@H](NC(=O)c2ncccc2O)[C@@H](C)OC(=O)[C@H](c2ccccc2)NC(=O)[C@@H]2CC(=O)[C@H](CS[C@@H]3CN4CCC3CC4)CN2C(=O)[C@H](Cc2ccc(N(C)C)cc2)N(C)C(=O)[C@@H]2CCCN2C1=O [QUINUPRISTIN] ({Picolinoyl(3-OH)}-T[dAbu]P[NMePhe(4-NMe2)][X1][Phg]; ester 1-C)
cmp: =
MIC, µg/mL: 128
--
compound: CC[C@H]1OC(=O)[C@H](C)[C@@H](O[C@H]2C[C@@](C)(OC)[C@@H](O)[C@H](C)O2)[C@H](C)[C@@H](O[C@@H]2O[C@H](C)C[C@H](N(C)C)[C@H]2O)[C@](C)(O)C[C@@H](C)C(=O)[C@H](C)[C@@H](O)[C@]1(C)O
cmp: >
MIC, µg/mL: 128
--
compound: CCC[C@@H]1C[C@@H](C(=O)N[C@@H]([C@H]2O[C@H](SC)[C@H](O)[C@@H](O)[C@H]2O)[C@H](C)Cl)N(C)C1
cmp: >
MIC, µg/mL: 512
--
compound: CC[C@H]1OC(=O)[C@H](C)[C@@H](O[C@H]2C[C@@](C)(OC)[C@@H](O)[C@H](C)O2)[C@H](C)[C@@H](O[C@@H]2O[C@H](C)C[C@H](N(C)C)[C@H]2O)[C@](C)(OC)C[C@@H](C)C(=O)[C@H](C)[C@@H](O)[C@]1(C)O
cmp: =
MIC, µg/mL: 16

* * *

Test system: Mycobacteroides abscessus
Assay: Antimicrobial activity against Mycobacterium abscessus isolate MC1028 at day 7 by broth microdilution method
Format: functional
Conditions: isolate MC1028, 168 h
Numbered stars: 1 amine (or outer) side, 2 acyl side, 3 side chain; on linkers, the order of the positions; unused ones are H or OH. Bridge positions count the residues as written; N and C are the ends. Square brackets hold non-standard residues; d marks the D form. Peptide text beside a SMILES is read from it. * marks the point of attachment. X1 = O=C1C[C@@H](C(=O)[*:2])N([*:1])C[C@H]1CS[C@@H]1CN2CCC1CC2; NMePhe(4-NMe2) = CN[C@@H](Cc1ccc(N(C)C)cc1)C(=O)O; Picolinoyl(3-OH) = O=C(c1ncccc1O)*; Phg = N[C@H](C(=O)O)c1ccccc1; dAbu = CC[C@@H](N)C(=O)O

compound: CC[C@H]1NC(=O)[C@@H](NC(=O)c2ncccc2O)[C@@H](C)OC(=O)[C@H](c2ccccc2)NC(=O)[C@@H]2CC(=O)[C@H](CS[C@@H]3CN4CCC3CC4)CN2C(=O)[C@H](Cc2ccc(N(C)C)cc2)N(C)C(=O)[C@@H]2CCCN2C1=O [QUINUPRISTIN] ({Picolinoyl(3-OH)}-T[dAbu]P[NMePhe(4-NMe2)][X1][Phg]; ester 1-C)
MIC: > 256 µg/mL

compound: CCC[C@@H]1C[C@@H](C(=O)N[C@@H]([C@H]2O[C@H](SC)[C@H](O)[C@@H](O)[C@H]2O)[C@H](C)Cl)N(C)C1
MIC: > 256 µg/mL

compound: CC[C@H]1OC(=O)[C@H](C)[C@@H](O[C@H]2C[C@@](C)(OC)[C@@H](O)[C@H](C)O2)[C@H](C)[C@@H](O[C@@H]2O[C@H](C)C[C@H](N(C)C)[C@H]2O)[C@](C)(OC)C[C@@H](C)C(=O)[C@H](C)[C@@H](O)[C@]1(C)O
MIC: ≤ 0.5 µg/mL

compound: CC[C@H]1OC(=O)[C@H](C)C(=O)[C@H](C)[C@@H](O[C@@H]2O[C@H](C)C[C@H](N(C)C)[C@H]2O)[C@](C)(OC)C[C@@H](C)C(=O)[C@H](C)[C@H]2N(CCCCn3cnc(-c4cccnc4)c3)C(=O)O[C@]12C
MIC: > 128 µg/mL

* * *

// MIC lookup, one value per entry
System: Mycolicibacterium smegmatis
Experiment: Antimicrobial activity against Mycobacterium smegmatis transformed with erm allele Mycobacterium abscessus isolate MC1028 preincubated with 2 ug/ml erythromycin for 20 to 24 hrs by broth microdilution method
Assay type: functional
Numbered stars: 1 amine (or outer) side, 2 acyl side, 3 side chain; on linkers, the order of the positions; unused ones are H or OH. Bridge positions count the residues as written; N and C are the ends. Square brackets hold non-standard residues; d marks the D form. Peptide text beside a SMILES is read from it. * marks the point of attachment. X1 = O=C1C[C@@H](C(=O)[*:2])N([*:1])C[C@H]1CS[C@@H]1CN2CCC1CC2; NMePhe(4-NMe2) = CN[C@@H](Cc1ccc(N(C)C)cc1)C(=O)O; Picolinoyl(3-OH) = O=C(c1ncccc1O)*; Phg = N[C@H](C(=O)O)c1ccccc1; dAbu = CC[C@@H](N)C(=O)O
experimental-readout: MIC (µg/mL)

compound: CCC[C@@H]1C[C@@H](C(=O)N[C@@H]([C@H]2O[C@H](SC)[C@H](O)[C@@H](O)[C@H]2O)[C@H](C)Cl)N(C)C1
assayed-target: Mycolicibacterium smegmatis
experimental-readout: MIC
cmp: =
test-result: 32
//
compound: CC[C@H]1NC(=O)[C@@H](NC(=O)c2ncccc2O)[C@@H](C)OC(=O)[C@H](c2ccccc2)NC(=O)[C@@H]2CC(=O)[C@H](CS[C@@H]3CN4CCC3CC4)CN2C(=O)[C@H](Cc2ccc(N(C)C)cc2)N(C)C(=O)[C@@H]2CCCN2C1=O [QUINUPRISTIN] ({Picolinoyl(3-OH)}-T[dAbu]P[NMePhe(4-NMe2)][X1][Phg]; ester 1-C)
assayed-target: Mycolicibacterium smegmatis
experimental-readout: MIC
cmp: =
test-result: 128
//
compound: CC[C@H]1OC(=O)[C@H](C)[C@@H](O[C@H]2C[C@@](C)(OC)[C@@H](O)[C@H](C)O2)[C@H](C)[C@@H](O[C@@H]2O[C@H](C)C[C@H](N(C)C)[C@H]2O)[C@](C)(O)C[C@@H](C)C(=O)[C@H](C)[C@@H](O)[C@]1(C)O
assayed-target: Mycolicibacterium smegmatis
experimental-readout: MIC
cmp: =
test-result: 4
//
compound: CC[C@H]1OC(=O)[C@H](C)C(=O)[C@H](C)[C@@H](O[C@@H]2O[C@H](C)C[C@H](N(C)C)[C@H]2O)[C@](C)(OC)C[C@@H](C)C(=O)[C@H](C)[C@H]2N(CCCCn3cnc(-c4cccnc4)c3)C(=O)O[C@]12C
assayed-target: Mycolicibacterium smegmatis
experimental-readout: MIC
cmp: =
test-result: 4
//
compound: CC[C@H]1OC(=O)[C@H](C)[C@@H](O[C@H]2C[C@@](C)(OC)[C@@H](O)[C@H](C)O2)[C@H](C)[C@@H](O[C@@H]2O[C@H](C)C[C@H](N(C)C)[C@H]2O)[C@](C)(OC)C[C@@H](C)C(=O)[C@H](C)[C@@H](O)[C@]1(C)O
assayed-target: Mycolicibacterium smegmatis
experimental-readout: MIC
cmp: ≤
test-result: 0.5
